Entries and their Number of dead mouse
Tested on: ICR-strain male mice
Assay: in vivo
Type: in vivo
Conditions: 2,500 mg/kg, oral; ten mice/group, one week
Please reply with the value in numeric form only.

                                   compound  recorded_result
0  COc1cc2nc(N3CCN(C(=O)Nc4ccccc4)CC3)nc(N)c2cc1OC [Compound 12]                0
1  COc1cc2nc(N3CCN(C(=O)Nc4ccccc4F)CC3)nc(N)c2cc1OC [Compound 25]                7
2  COc1cc2nc(N3CCN(C(=O)NC4CCCC4)CC3)nc(N)c2cc1OC [Compound 3]                0
3  COc1cc2nc(N3CCN(C(=O)Nc4ccccc4C)CC3)nc(N)c2cc1OC [Compound 13]                5
4  COc1cc2nc(N3CCN(C(=O)NC4CCCCC4)CC3)nc(N)c2cc1OC [Compound 4]                0

## Task Given the entry COc1cc2nc(N3CCN(/C(S)=N/c4ccccc4)CC3)nc(N)c2cc1OC [Compound 35] , what Number of dead mouse was observed with ICR-strain male mice?
## Result 0

## Task What would you report for CCOc1ccc(NC(=O)N2CCN(c3nc(N)c4cc(OC)c(OC)cc4n3)CC2)cc1 [Compound 21] ?
## Result 0

Origin of values: patent US4607034A
